Source: patent US20250195463A1

- Test system: MDA-MB-231 (FGFR−)
- assay.name: MTT cytotoxicity assay
- test.settings: read-out: Cytotoxic activity expressed as IC50; Table 5; MDA-MB-231; 48 h, 37° C.
- Description: By way of example, the in vitro cytotoxicity of the conjugate RuPC1, complex 4 and peptide P2 was determined in four human breast cancer cell lines with different levels of expression of the receptor FGFR, namely MDA-MB-231 (FGFR−), MCF-7 (FGFR−), SK-BR-3 (FGFR+), and MDA-MB-134-VI (FGFR+). The cytotoxicity of RuPC1 was also determined in the stated cell lines at controlled pH 6.8 and 7.4. […] (TM34) was only determined in the cell line MDA-MB-231. […]
Checkbox rule: IC50 lower than 500 nM = Criterion met; IC50 not lower than 500 nM = Criterion not met.

molecule | label.class
CCC(=O)C1=C[CH]([Ru-]2([PH](c3ccccc3)(c3ccccc3)c3ccccc3)[n+]3ccccc3-c3cccc[n+]32)C=C1.O=S(=O)([O-])C(F)(F)F (centres unmarked) [compound 8] | Criterion not met
NNC(=O)C1=C[CH]([Ru-]2([PH](c3ccccc3)(c3ccccc3)c3ccccc3)[n+]3ccccc3-c3cccc[n+]32)C=C1.O=S(=O)([O-])C(F)(F)F (centres unmarked) [compound 4] | Criterion not met
CC(=O)C1=C[CH]([Ru-]2([PH](c3ccccc3)(c3ccccc3)c3ccccc3)[n+]3ccccc3-c3cccc[n+]32)C=C1.O=S(=O)([O-])C(F)(F)F (centres unmarked) [compound 5] | Criterion met
O=C(Cc1ccccc1)C1=C[CH]([Ru-]2([PH](c3ccccc3)(c3ccccc3)c3ccccc3)[n+]3ccccc3-c3cccc[n+]32)C=C1.O=S(=O)([O-])C(F)(F)F (centres unmarked) [compound 9] | Criterion met
O=S(=O)([O-])C(F)(F)F.[Ru+2].c1cc[cH-]c1.c1ccc(-c2ccccn2)nc1.c1ccc(P(c2ccccc2)c2ccccc2)cc1 [TM34, reference compound] | Criterion not met
